Reported SPOT intensity values for the following binders.
Target: T1, Cdc25, P04821
T1 sequence (P04821 50-136, looked up): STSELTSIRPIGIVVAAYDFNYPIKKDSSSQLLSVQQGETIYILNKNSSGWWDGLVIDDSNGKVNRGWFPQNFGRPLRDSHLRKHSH
Assay: SPOT array
Details: median of control spots 969
Give the figure only, with no unit attached.

binder: VQKRKLPLPGSIASA
SPOT intensity: 18

Q: Retrieve SPOT intensity measured for RRARRQMGIPTISQV and print it.
Ans: 120

Q: Retrieve SPOT intensity measured for TIRRRAPLSLLESHT and print it.
Ans: 13

Q: Retrieve SPOT intensity measured for LYEAMPPTLPHRDWK and print it.
Ans: 0
